FYI, the data here is from patent US7329655B2.

target: human β-PDGFR (Homo sapiens, UniProt P09619); assay: HR5 phosphorylation assay; details: HR5 cells (CHO overexpressing human β-PDGFR), 8 nM PDGF BB; inhibition of PDGF receptor phosphorylation
Sequence (P09619 33-1106): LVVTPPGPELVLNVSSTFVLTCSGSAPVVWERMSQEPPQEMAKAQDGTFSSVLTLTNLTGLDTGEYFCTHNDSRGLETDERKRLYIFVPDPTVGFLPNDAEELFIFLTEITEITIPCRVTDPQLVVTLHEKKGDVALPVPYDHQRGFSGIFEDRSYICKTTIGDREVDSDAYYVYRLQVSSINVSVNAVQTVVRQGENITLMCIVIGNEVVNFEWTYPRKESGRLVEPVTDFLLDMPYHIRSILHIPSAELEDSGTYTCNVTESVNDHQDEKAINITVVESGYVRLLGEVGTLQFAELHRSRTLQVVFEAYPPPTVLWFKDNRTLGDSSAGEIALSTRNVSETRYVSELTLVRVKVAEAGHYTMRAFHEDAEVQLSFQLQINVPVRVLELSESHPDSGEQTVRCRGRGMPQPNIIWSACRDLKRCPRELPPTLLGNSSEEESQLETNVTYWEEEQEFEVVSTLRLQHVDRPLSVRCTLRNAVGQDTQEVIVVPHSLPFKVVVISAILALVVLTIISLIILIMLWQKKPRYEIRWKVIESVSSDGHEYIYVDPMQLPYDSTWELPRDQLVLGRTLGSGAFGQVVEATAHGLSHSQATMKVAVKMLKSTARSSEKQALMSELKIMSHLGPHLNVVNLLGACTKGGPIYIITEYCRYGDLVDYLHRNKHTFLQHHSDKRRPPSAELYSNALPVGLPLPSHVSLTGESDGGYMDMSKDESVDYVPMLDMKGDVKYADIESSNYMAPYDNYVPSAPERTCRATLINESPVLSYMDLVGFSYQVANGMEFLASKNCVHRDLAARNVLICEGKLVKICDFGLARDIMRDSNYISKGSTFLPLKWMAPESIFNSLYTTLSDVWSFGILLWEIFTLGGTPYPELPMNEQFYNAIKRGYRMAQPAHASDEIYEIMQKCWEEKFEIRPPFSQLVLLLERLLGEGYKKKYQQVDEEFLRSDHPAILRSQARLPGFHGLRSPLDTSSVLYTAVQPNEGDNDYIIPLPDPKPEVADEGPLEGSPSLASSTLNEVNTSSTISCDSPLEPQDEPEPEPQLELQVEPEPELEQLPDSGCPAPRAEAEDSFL
ENDPOINT_NAME: IC50

Measured IC50 of COc1cc2c(N3CCN(C(=S)NCc4ccc5c(c4)OCO5)CC3)ncnc2cc1OCCN1CCCCC1 : 50 nM

Measured IC50 of COc1cc2c(N3CCN(C(=S)NCc4cnc(C)cn4)CC3)ncnc2cc1OCCN1CCCCC1 : 20 nM
